Reported values of self-cleavage for individual entries
B1: HDV Ribozyme (parent)
chain: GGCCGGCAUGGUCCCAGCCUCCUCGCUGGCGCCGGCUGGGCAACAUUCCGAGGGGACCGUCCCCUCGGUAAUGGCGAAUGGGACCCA

variants of: B1; assay: self-cleavage, relative activity (ratio to wild type); higher = more cleavage; co-transcriptional
Respond with the number and no other words.

C3A G34C = 0.0903
G10U C30U = 0.137
G76U C84G = 1.05
G11A A71G = 0.554
A70C C75U = 0.0875
G29C C84A = 0.0831

Report self-cleavage for C48A C66G please.
0.831
